System: 435261-313-R-J1-PDC complex spheroid viability;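 note: spheroids exposed to the agents for seven days before readout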
Test: Anticancer human tumor 435261-313-R-J1-PDC patient-derived colon adenocarcinoma cell line growth inhibition [GQUAD]
Details: second compound 0.0316 µM; first compound 0.316 µM; stronger effect = lower value
Group membership follows viability, T/C per the scheme range A = under 70%, range B = from 70% up to 90%, range C = 90% and over

CC1COCCN1c1cc(C2(S(C)(=N)=O)CC2)nc(-c2ccnc3[nH]ccc23)n1 (stereo unspecified) + Cc1cnc(CNC(=O)c2c(=O)c3ccc(N4CCCN(C)CC4)nc3n3c2sc2ccccc23)cn1 = range A
CC(C)n1c(=O)n(C)c2cnc3cc(F)c(-c4ccc(OCCCN5CCCCC5)nc4)cc3c21 + CN(C)c1ccc(Nc2c3ccc(NC(=O)CCN4CCCC4)cc3nc3cc(NC(=O)CCN4CCCC4)ccc23)cc1 = range C
O=C(c1cc(Cc2n[nH]c(=O)c3ccccc23)ccc1F)N1CCN(C(=O)C2CC2)CC1 + Cc1cnc(CNC(=O)c2c(=O)c3ccc(N4CCCN(C)CC4)nc3n3c2sc2ccccc23)cn1 = range A
Cn1ncnc1[C@H]1c2n[nH]c(=O)c3cc(F)cc(c23)N[C@@H]1c1ccc(F)cc1 + CN(C)c1ccc(Nc2c3ccc(NC(=O)CCN4CCCC4)cc3nc3cc(NC(=O)CCN4CCCC4)ccc23)cc1 = range B
Cc1cccc(N(C)C(=O)C2C(O)CCN2c2nc(C)cc(C(F)(F)F)c2C#N)c1 (stereo unspecified) + Cc1[nH]c2ccc(F)cc2c1-c1nc2c3cccnc3c3ncccc3c2[nH]1 = range C
C=CC(=O)N1CCN(c2nc(=O)n(-c3c(C)ccnc3C(C)C)c3nc(-c4c(O)cccc4F)c(F)cc23)C(C)C1 (stereo unspecified) + CN(C)c1ccc(Nc2c3ccc(NC(=O)CCN4CCCC4)cc3nc3cc(NC(=O)CCN4CCCC4)ccc23)cc1 = range C
Nc1ccn(C2OC(CO)C(O)C2(F)F)c(=O)n1 (stereo unspecified) + Cc1[nH]c2ccc(F)cc2c1-c1nc2c3cccnc3c3ncccc3c2[nH]1 = range A
O=c1[nH]cc(F)c(=O)[nH]1 + Cc1cnc(CNC(=O)c2c(=O)c3ccc(N4CCCN(C)CC4)nc3n3c2sc2ccccc23)cn1 = range B
